Test system: T-47D breast
Experiment: NCI-60 one-dose screen, 48 h (100 = growth as untreated, 0 = no growth, -100 = all killed)
Conditions: 10 µM unless noted
This is part of a sample that, as a whole, favours compounds with a hit. Of some 83,000 tested, about 20% had one in any assay.
QUANTITY MEASURED: growth (%)
Record the value in %, omitting the unit from your answer.

// below: answered compounds
{"COMPOUND": "CC(O)C(NC(=O)C1CCCN1C(=O)CNC(=O)C1CC(=O)NCC(=O)NC(Cc2c[nH]c3ccccc23)C(=O)NC(Cc2ccc(O)cc2)C(=O)NCC(=O)NC(CO)C(=O)NC(CCC(N)=O)C(=O)NC(Cc2c[nH]c3ccccc23)C(=O)N1)C(=O)NCC(=O)NC(CCC(N)=O)C(=O)NC(CCCNC(=N)N)C(=O)NC(CC(=O)O)C(=O)O (stereo not drawn)", "UNIT NAME": "%", "growth": 106}
{"COMPOUND": "COc1cc(/C=C/C(=O)c2ccc(F)cc2)ccc1Oc1nc(NCCO)nc(N2CCOCC2)n1", "UNIT NAME": "%", "growth": 96.5}
{"COMPOUND": "CC(C)(C)Nc1nc2c(OCCc3ccccc3)cccn2c1-c1ccc(O)cc1", "UNIT NAME": "%", "growth": 35.9}
{"COMPOUND": "COc1ccc(/C=C/C(=O)c2ccc(NC(=O)CSc3nnc(-c4ccc5nc(-c6ccc(Cl)cc6)[nH]c5c4)o3)cc2)cc1", "UNIT NAME": "%", "growth": 78}
{"COMPOUND": "COc1cc2nc(-c3ccc(C(F)(F)F)cc3)cc(OCCCNCC3CCCO3)c2cc1OC (stereo not drawn)", "UNIT NAME": "%", "growth": 38}

Task: // fetch growth for Cc1sc2nc(NCc3ccccc3Cl)[nH]c(=O)c2c1C ; system: T-47D breast
Output: 94.6

Task: // fetch growth for CCOC(=O)c1c(NC(=O)c2cccc(C(F)(F)F)c2)sc2cc(O)ccc12 ; system: T-47D breast
Output: 64

Task: // fetch growth for Oc1c(Cl)cc(Cl)c2ccc(CN3CCCCC3)nc12 ; system: T-47D breast
Output: 48.1
